Please provide measured A405+ for the entries that follow.
- experimental_target: T1, human Her2 (ECD)-Fc protein (human, UniProt P04626 23-652)
- T1 construct: extracellular domain; Made in HEK293F cells; also called hHer2 (ECD)-Fc antigen; Her2 (ECD)-Fc antigen; not shown: TEV restriction site at the C-terminal of hHer2 (ECD); IgG1 Fc of the pFUSE-IgG1 vector
- test_details: PE-ELISA, crude extract on antigen-coated plate
Answers are plain numbers, in A405.

Reference set, count: 5
>>> numeric_result("Nanobody No. 36 (VHH, also called 36; not shown: tags (HA, His) implied by anti-HA detection and nickel column) VHH: QVQLQESGGGSVQAGESLRLSCRTSGFSFDDVDMGWYRQAPGNECELVSTISSDGSTYYADSVKGRFTISQDNAKNTVYLQMNSLKPEDTAMYYCAAARYSDYEGMCGYWSQGTQVTVSS")
2.22
>>> numeric_result("Nanobody No. 15 (VHH, also called 15; not shown: tags (HA, His) implied by anti-HA detection and nickel column) VHH: QVQLQESGGGSVQAGGSLRLSCTASRFTFDDSDMGWYRQAPGNECELVSTISSDGATYYANSVKGRFTISQDNAANTVYLQMNSLKPEDTAVYYCAALEWEYELGTCEALDYWGQGTQVTVSS")
2.27
>>> numeric_result("Nanobody No. 14 (VHH, also called 14; not shown: tags (HA, His) implied by anti-HA detection and nickel column) VHH: QVQLQESGGGSVQAGETLRLSCTASGFTFDDSDMGWYRQAPGNECELVSRISSDGSTYYADSVKGRFTISQDNAKNTVYLQMNSLKPEDTAVYYCAALEWEYELGTCEALDYWGQGTQVTVSS")
1.96
>>> numeric_result("Nanobody No. 6 (VHH, not shown: tags (HA, His) implied by anti-HA detection and nickel column) VHH: QVQLQESGGGSVQAGETLRLSCTASGFTFDDSDMGWYRQAPGNECELVSHISSDGSTYYADSVKGRFTISQDNAKNTVFLQMNSLKPEDTAVYYCAADKDARGYELGTCESLDYWGRGTQVTVSS")
2.14
>>> numeric_result("Nanobody No. 20 (VHH, also called 20; not shown: tags (HA, His) implied by anti-HA detection and nickel column) VHH: QVQLQESGGGSVQAGGSLRLSCTASGFTFDDSVMGWFRKAPGNECELVSTISSDGSTYYADSVKGRFTISQDNAKNTVYLQMNNLKPEDTAVYYCAAINSGYELGTCESLDYWGRGTQVTVSS")
1.47

Provide reported A405+ for each item, in the same order as listed.
1. Nanobody No. 30 (VHH, also called 30; not shown: tags (HA, His) implied by anti-HA detection and nickel column) VHH: QVQLQESGGGSVQAGETLRLSCTASGFTFDDSDMGWYRQAPGNECELVSTISSDGRTYYADSVKGRFAISQNNAKNTVYLQMNSLKPEDTAVYYCAADQHRYGLGTCEALDYWGRGTQVTVSS
2. Nanobody No. 33 (VHH, also called 33; not shown: tags (HA, His) implied by anti-HA detection and nickel column) VHH: QVQLQESGGGSVQAGGSLRLSCTASGFTFDDVDMGWYRQAPGNECELVSTISSDGSTYYADSVKGRFTISQDNAKNTVYLQMNSLKPEDTAMYYCAAARYSDYEGMCGYWSQGTQVTVSS
3. Nanobody No. 21 (VHH, also called 21; not shown: tags (HA, His) implied by anti-HA detection and nickel column) VHH: QVQLQESGGGLVQPRGSLRLSCTASGFTFDDSDSDMGWYRQAPGNECELVSSISSDGSTYYADSVKGRFTISQDNAKNTVYLQMNSLKPEDTAVYYCAAINSGYELGTCESLDYWGRGTQVTVSS

1. 2.31
2. 2.05
3. 2.09

Values compiled from patent US20230263916A1.
